# test_system: GST-tagged truncated human mutant G2019S LRRK2 (Homo sapiens (Human), UniProt Q5S007, G2019S)
# Sequence (Q5S007 970-2527 G2019S): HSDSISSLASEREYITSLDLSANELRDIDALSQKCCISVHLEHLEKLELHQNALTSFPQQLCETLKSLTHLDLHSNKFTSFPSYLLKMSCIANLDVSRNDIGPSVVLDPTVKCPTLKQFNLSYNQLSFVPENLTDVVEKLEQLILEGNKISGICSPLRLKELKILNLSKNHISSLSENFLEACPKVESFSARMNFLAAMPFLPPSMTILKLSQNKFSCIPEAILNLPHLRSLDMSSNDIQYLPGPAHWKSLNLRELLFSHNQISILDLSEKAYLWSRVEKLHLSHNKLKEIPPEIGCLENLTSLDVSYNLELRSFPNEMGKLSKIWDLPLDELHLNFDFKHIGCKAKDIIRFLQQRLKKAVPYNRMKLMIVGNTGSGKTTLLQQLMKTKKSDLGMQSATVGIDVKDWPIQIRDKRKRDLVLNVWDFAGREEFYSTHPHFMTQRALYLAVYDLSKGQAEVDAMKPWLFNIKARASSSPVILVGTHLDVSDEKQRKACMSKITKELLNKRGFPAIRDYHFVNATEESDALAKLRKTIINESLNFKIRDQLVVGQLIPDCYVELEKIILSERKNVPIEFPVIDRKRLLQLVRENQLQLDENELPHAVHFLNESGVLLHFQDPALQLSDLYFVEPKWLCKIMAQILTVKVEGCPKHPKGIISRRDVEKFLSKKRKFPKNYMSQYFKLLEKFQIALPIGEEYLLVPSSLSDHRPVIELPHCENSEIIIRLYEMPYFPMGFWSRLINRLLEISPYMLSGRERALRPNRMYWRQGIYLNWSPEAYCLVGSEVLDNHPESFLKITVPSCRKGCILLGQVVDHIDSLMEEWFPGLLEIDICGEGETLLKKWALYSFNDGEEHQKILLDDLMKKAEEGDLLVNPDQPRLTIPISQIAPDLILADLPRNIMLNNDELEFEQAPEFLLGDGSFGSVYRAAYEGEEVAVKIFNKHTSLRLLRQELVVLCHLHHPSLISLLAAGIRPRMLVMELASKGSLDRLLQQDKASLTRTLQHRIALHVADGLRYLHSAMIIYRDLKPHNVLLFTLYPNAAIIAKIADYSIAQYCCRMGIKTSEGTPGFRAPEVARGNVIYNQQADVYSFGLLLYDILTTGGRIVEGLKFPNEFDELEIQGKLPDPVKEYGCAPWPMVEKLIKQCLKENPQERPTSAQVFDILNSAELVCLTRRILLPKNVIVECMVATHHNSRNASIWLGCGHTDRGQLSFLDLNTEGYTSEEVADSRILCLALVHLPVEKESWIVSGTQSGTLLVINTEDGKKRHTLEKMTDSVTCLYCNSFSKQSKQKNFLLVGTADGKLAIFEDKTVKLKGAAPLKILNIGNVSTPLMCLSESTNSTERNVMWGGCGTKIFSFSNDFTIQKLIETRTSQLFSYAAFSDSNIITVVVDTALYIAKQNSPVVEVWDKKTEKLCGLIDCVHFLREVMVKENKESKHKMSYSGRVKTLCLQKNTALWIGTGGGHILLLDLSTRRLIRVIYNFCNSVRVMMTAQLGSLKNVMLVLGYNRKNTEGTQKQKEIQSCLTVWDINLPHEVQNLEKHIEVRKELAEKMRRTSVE
# assay_explanation: LRRK2 G2019S Km ATP LanthaScreen assay
# Assay type: biochemical
# setup_conditions: G2019S LRRK2, 134 μM ATP (Km ATP), LRRKtide substrate
Below: a set of entries, each annotated with reported LRRK2 pIC50.
Give a plain numeric answer without units written out.

Below: 2 compounds and their reported LRRK2 pIC50.
{"columns": ["compound", "LRRK2 pIC50"],
 "data": [
  ["Cc1nn(C2CCC2)c2c1OC[C@H]1COC[C@@H]1Nc1cc(ncc1C(F)(F)F)N2", 7.01],
  ["Cc1nn(C)c2c1OC[C@@H]1CCC(C1)Nc1nc(ncc1C(F)(F)F)N2", 6.84]
]}

Now look at this entry.
Quick check: LRRK2 pIC50 of Cc1nn(C2CCC2)c2c1OC1COC[C@H]1CNc1nc(ncc1C(F)(F)F)N2 (stereo partly drawn) [Ex-2.79] ? 6.87

====

Below: a set of entries, each annotated with reported LRRK2 pIC50.
# test_system: GST-tagged truncated human mutant G2019S LRRK2 (Homo sapiens (Human), UniProt Q5S007, G2019S)
# assay_explanation: LRRK2 G2019S Km ATP LanthaScreen assay
# Format: biochemical
# setup_conditions: G2019S LRRK2, 134 μM ATP (Km ATP), LRRKtide substrate
Give a plain numeric answer without units written out.

{"columns": ["compound", "reported_property", "observed_value"],
 "data": [
  ["Cc1nn(C2CC2(F)F)c2c1OCC1COCC1Nc1nc(ncc1C(F)(F)F)N2 (stereo not shown) [Ex-2.58]", "LRRK2 pIC50", 8.78],
  ["Cc1nn(C2CCC2)c2c1OCC1CCCC1Nc1nc(ncc1C(F)(F)F)N2 (stereo not shown) [Ex-5.5]", "LRRK2 pIC50", 10.06]
]}

Quick check: LRRK2 pIC50 of COC1CCC1n1nc(C)c2c1Nc1ncc(C(F)(F)F)c(n1)NC1COCC1CO2 (stereo not shown) [Ex-2.41] ? 6.51

====

# test_system: GST-tagged truncated human mutant G2019S LRRK2 (Homo sapiens (Human), UniProt Q5S007, G2019S)
# assay_explanation: LRRK2 G2019S Km ATP LanthaScreen assay
# Type: biochemical
# setup_conditions: G2019S LRRK2, 134 μM ATP (Km ATP), LRRKtide substrate
Below: a set of entries, each annotated with reported LRRK2 pIC50.

Below: 2 compounds and their reported LRRK2 pIC50.
{"columns": ["compound", "LRRK2 pIC50"],
 "data": [
  ["Cn1nc(C2CC2)c2c1OCC1CCC1Nc1nc(ncc1C(F)(F)F)N2 (stereo not drawn) [Ex-1.9]", ">10.09"],
  ["Cc1nn(C)c2c1OCC1CC[C@H]1Nc1nc(ncc1C(F)(F)F)N2 (stereo partly drawn) [Ex-2.11]", ">10.09"]
]}

Now look at this entry.
Quick check: LRRK2 pIC50 of Cc1nn(C2CCC2)c2c1OC[C@@H]1CC[C@@H]1Nc1nc(ncc1Cl)N2 ? >10.09

====

# test_system: GST-tagged truncated human mutant G2019S LRRK2 (Homo sapiens (Human), UniProt Q5S007, G2019S)
# assay_explanation: LRRK2 G2019S Km ATP LanthaScreen assay
# Format: biochemical
# setup_conditions: G2019S LRRK2, 134 μM ATP (Km ATP), LRRKtide substrate
Lab note: anything with LRRK2 pIC50 at or over 8 counts as TRUE; the rest go in FALSE.

Worked examples, 3 compounds total:
{"columns": ["compound", "class_assignment"],
 "data": [
  ["CC(C)c1nn(C(C)(C)CO)c2c1Nc1ncc(C(F)(F)F)c(n1)N[C@H](C)CCO2", "TRUE"],
  ["FC(F)(F)c1cnc2nc1NC1CCC1COc1c(C3COC3)nn(C3CCC3)c1N2 (stereo not shown) [Ex-2.72]", "TRUE"],
  ["Cn1nc(C2CC2)c2c1OCC1COCC1Nc1nc(ncc1C(F)(F)F)N2 (stereo not shown) [Ex-1.6]", "FALSE"]
]}

Form field: LRRK2 pIC50 at least 8? Entry: C=CCn1nc(C)c2c1Nc1ncc(C(F)(F)F)c(n1)N[C@@H]1COC[C@H]1CO2 FALSE

Form field: LRRK2 pIC50 at least 8? Entry: Cc1nn(C2CC2(F)F)c2c1OCC1COCC1Nc1nc(ncc1C(F)(F)F)N2 (stereo not shown) [Ex-2.59] TRUE

Form field: LRRK2 pIC50 at least 8? Entry: Cc1nn(C2CCC2)c2c1OC[C@@H]1CC[C@H]1Nc1cc(ncc1Cl)N2 TRUE
